Recorded values, source patent US9783505B2.

# target-or-system: His-PKC-theta (Homo sapiens, UniProt Q04759)
# Construct: His; purchased Invitrogen
# Sequence (Q04759 whole entry): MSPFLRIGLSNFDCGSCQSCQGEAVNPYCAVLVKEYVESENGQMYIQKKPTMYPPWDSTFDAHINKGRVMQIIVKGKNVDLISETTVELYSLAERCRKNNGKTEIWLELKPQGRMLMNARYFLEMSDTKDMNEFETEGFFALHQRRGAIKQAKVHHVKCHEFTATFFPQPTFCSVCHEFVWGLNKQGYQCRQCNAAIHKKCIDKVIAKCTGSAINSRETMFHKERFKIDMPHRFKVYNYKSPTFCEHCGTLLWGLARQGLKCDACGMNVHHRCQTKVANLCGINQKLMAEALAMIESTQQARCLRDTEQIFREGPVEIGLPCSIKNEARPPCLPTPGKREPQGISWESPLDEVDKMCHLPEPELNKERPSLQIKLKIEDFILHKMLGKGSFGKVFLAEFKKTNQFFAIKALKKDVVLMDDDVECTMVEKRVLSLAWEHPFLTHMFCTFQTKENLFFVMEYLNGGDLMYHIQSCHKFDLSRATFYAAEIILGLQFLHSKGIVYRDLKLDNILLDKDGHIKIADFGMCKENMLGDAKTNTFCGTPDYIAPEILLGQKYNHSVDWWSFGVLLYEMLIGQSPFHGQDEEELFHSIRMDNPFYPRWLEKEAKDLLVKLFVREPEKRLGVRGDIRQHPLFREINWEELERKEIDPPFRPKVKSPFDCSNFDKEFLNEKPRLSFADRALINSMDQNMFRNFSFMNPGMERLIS
# assay-details: PKC-theta Assay (384-well time resolved fluorescence, IMAP TR-FRET)
# Format: biochemical
# experimental-parameters: Table 2; read-out: Act. Level (IC50 in the PKC-theta Assay)
pIC50: −log10 of the molar value.
measurement-label: pIC50

Use the examples below as a reference point.
[
  {
    "compound": "CC1(C)C[C@H](Nc2nc(NCC(O)c3ccc(O)cc3)ncc2C#N)CC[C@@H]1O (stereo partly drawn) [Cmpd 80]",
    "test-result": "5.00 to 5.70"
  },
  {
    "compound": "N#Cc1cnc(NCc2ccccc2N2CCOCC2)nc1N[C@H]1CC[C@@H](O)CC1 [Cmpd 13]",
    "test-result": "5.70 to 6.10"
  },
  {
    "compound": "CC1(C)C[C@H](Nc2nc(NCCc3ccc(Cl)c(Cl)c3)ncc2C#N)CC[C@@H]1O [Cmpd 101]",
    "test-result": "6.10 to 7.00"
  },
  {
    "compound": "N#Cc1cnc(NCc2c(F)cccc2Cl)nc1N[C@H]1CC[C@@H](O)CC1 [Cmpd 16]",
    "test-result": "6.10 to 7.00"
  },
  {
    "compound": "CC1(C)[C@@H](O)C[C@H]1Nc1nc(NCCc2cccc3ccccc23)ncc1C#N [Cmpd 128]",
    "test-result": "6.10 to 7.00"
  },
  {
    "compound": "CC1(C)C[C@H](Nc2nc(NCCc3ccccc3OC(F)F)ncc2C#N)CC[C@@H]1O [Cmpd 132]",
    "test-result": "6.10 to 7.00"
  },
  {
    "compound": "CC1(C)C[C@H](O)CC[C@@H]1Nc1nc(NCCc2cccc(Cl)c2)ncc1C#N [Cmpd 189]",
    "test-result": "5.70 to 6.10"
  },
  {
    "compound": "CC1(C)[C@@H](O)C[C@H]1Nc1nc(NCCc2ccc(C#N)c(OC(F)(F)F)c2)ncc1C#N [Cmpd 143]",
    "test-result": "5.70 to 6.10"
  },
  {
    "compound": "CC1(C)C[C@H](Nc2nc(NCCc3ccc(C#N)c(Br)c3)ncc2C#N)CC[C@@H]1O [Cmpd 146]",
    "test-result": "> 7.00"
  },
  {
    "compound": "CC1(C)[C@@H](O)C[C@H]1Nc1nc(NCCc2ccccc2C(F)(F)F)ncc1C#N [Cmpd 44]",
    "test-result": "6.10 to 7.00"
  }
]

What value of measured pIC50 is listed for COc1cccc(CCNc2ncc(C#N)c(N[C@@H]3CC[C@H](O)C(C)(C)C3)n2)c1 [Cmpd 31] ?
> 7.00

What value of measured pIC50 is listed for CC(=O)Nc1ccc(CCNc2ncc(C#N)c(N[C@@H]3CC[C@H](O)C(C)(C)C3)n2)cc1 [Cmpd 130] ?
6.10 to 7.00

What value of measured pIC50 is listed for N#Cc1cnc(NCc2ccccc2Oc2ccc(F)cc2)nc1N[C@H]1CC[C@@H](O)CC1 [Cmpd 12] ?
5.70 to 6.10

What value of measured pIC50 is listed for CNC(=O)c1cccc(CCNc2ncc(C#N)c(N[C@@H]3CC[C@H](O)C(C)(C)C3)n2)c1 [Cmpd 131] ?
5.70 to 6.10

What value of measured pIC50 is listed for COc1cc(CCNc2ncc(C#N)c(N[C@@H]3C[C@H](O)C3(C)C)n2)ccc1O [Cmpd 104] ?
5.00 to 5.70

What value of measured pIC50 is listed for CC1(C)C[C@H](Nc2nc(NCCc3ccc(S(=O)(=O)C(F)(F)F)cc3)ncc2C#N)CC[C@@H]1O [Cmpd 185] ?
6.10 to 7.00

What value of measured pIC50 is listed for CN1CCN(c2ccccc2CNc2ncc(C#N)c(N[C@H]3CC[C@@H](O)CC3)n2)CC1 [Cmpd 27] ?
5.00 to 5.70

What value of measured pIC50 is listed for COc1ccccc1CCNc1ncc(C#N)c(N[C@@H]2CC[C@H](O)C(C)(C)C2)n1 [Cmpd 30] ?
6.10 to 7.00

What value of measured pIC50 is listed for CC1(C)C[C@@H](O)CC[C@@H]1Nc1nc(NCCc2cccc(Cl)c2)ncc1C#N [Cmpd 187] ?
5.00 to 5.70

What value of measured pIC50 is listed for CC1(C)[C@@H](O)C[C@H]1Nc1nc(NCCc2ccc(Oc3ccccc3)cc2)ncc1C#N [Cmpd 119] ?
6.10 to 7.00

What value of measured pIC50 is listed for N#Cc1cnc(NCc2ccc(F)cc2F)nc1N[C@H]1CC[C@@H](O)CC1 [Cmpd 20] ?
5.00 to 5.70

What value of measured pIC50 is listed for N#Cc1cnc(NCCc2cccc(Cl)c2)nc1N[C@H]1C[C@H](O)C1 [Cmpd 71] ?
5.00 to 5.70

What value of measured pIC50 is listed for Cc1nnnn1-c1ccccc1CNc1ncc(C#N)c(N[C@H]2CC[C@@H](O)C(C)(C)C2)n1 [Cmpd 25] ?
5.00 to 5.70

What value of measured pIC50 is listed for COc1ccc(CCNc2ncc(C#N)c(N[C@@H]3CC[C@H](O)C(C)(C)C3)n2)cc1OC [Cmpd 36] ?
6.10 to 7.00
